- Experimental Details: Neutralization of human sweat in aqueous environment, two chamber sample (headspace GC-MS)
- Protocol Conditions: 5.0 μmol test compound on viscose filter; aqueous 3-mercapto-1-butanol (17 mM) with 3-methyl hexanoic acid (23 mM); 16 h at 35° C., vs blank samples
// values below are reported % Headspace reduction of malodours compounds: 3-mercapto-1-butanol
Express the result in % but write the number alone.

*Q* Requested read-out: % Headspace reduction of malodours compounds: 3-mercapto-1-butanol. Entry: CCOC(=O)C=C(C(C)=O)C(C)=O [drawing 58]
*A* 100

*Q* Request: CCOC(=O)/C=C(/C(C)=O)C(=O)OCC [drawing 57]
*A* 98

*Q* Request: CCOC(=O)C(OCC)C(C(C)=O)C(=O)OCC (stereo not drawn) [drawing 59]
*A* 100

###

- Experimental Details: Neutralization of propyl mercaptane (headspace GC-MS)
- Protocol Conditions: 0.25 ml 4 mM test compound + 0.25 ml 4 mM propyl mercaptane in dimethylsulfoxide/H2O 1:1, room temperature, 3 h, vs blank samples
Readout Label: % Headspace Reduction (%)
Express the result in % but write the number alone.

Reference set, count: 2
CCOC(=O)C(O)C(C(C)=O)C(=O)OCC (stereo not drawn)
62
CCOC(=O)/C=C(\C(=O)OC)C(=O)C(C)(C)C
82

The record that follows has no % Headspace Reduction shown yet.
*Q* Requested read-out: % Headspace Reduction. Entry: CCOC(=O)C=C(C(C)=O)C(C)=O [drawing 38]
*A* 100

###

// values below are reported % Headspace reduction of malodours compounds: 3-methyl hexanoic acid
- Experimental Details: Neutralization of human sweat in aqueous environment, two chamber sample (headspace GC-MS)
- Protocol Conditions: 5.0 μmol test compound on viscose filter; aqueous 3-methyl hexanoic acid (23 mM) with 3-mercapto-1-butanol (17 mM); 16 h at 35° C., vs blank samples
Express the result in % but write the number alone.

CCCCCCOC(=O)/C=C/C(=O)OCCCCCC [DHF, Dihexylfumarate, reference compound]
0

*Q* Requested read-out: % Headspace reduction of malodours compounds: 3-methyl hexanoic acid. Entry: CCOC(=O)C(OCC)C(C(C)=O)C(=O)OCC (centres unmarked) [drawing 59]
*A* 0

*Q* Request: CCOC(=O)/C=C(\C(=O)OCC)C(=O)c1ccccc1 [drawing 60]
*A* 28

*Q* Request: CCOC(=O)C=C(C(C)=O)C(C)=O [drawing 58]
*A* 0

*Q* Request: CCCCCCC/C=C(/C(C)=O)C(=O)OCC [drawing 56]
*A* 10

*Q* Request: CCOC(=O)/C=C(/C(C)=O)C(=O)OCC [drawing 57]
*A* 10

*Q* Request: CCOc1cc(C=C(C(C)=O)C(C)=O)ccc1O [drawing 61]
*A* 9

*Q* Request: CCCCCCCC=C(C(=O)OCC)C(=O)OCC [drawing 55]
*A* 0

###

// values below are reported % Headspace reduction of malodours compounds: 3-mercapto-1-butanol
- Experimental Details: Neutralization of human sweat in aqueous environment, two chamber sample (headspace GC-MS)
- Protocol Conditions: 5.0 μmol test compound on viscose filter; aqueous 3-mercapto-1-butanol (17 mM) with 3-methyl hexanoic acid (23 mM); 16 h at 35° C., vs blank samples
Express the result in % but write the number alone.

*Q* Requested read-out: % Headspace reduction of malodours compounds: 3-mercapto-1-butanol. Entry: CCOc1cc(C=C(C(C)=O)C(C)=O)ccc1O [drawing 61]
*A* 41

*Q* Request: CCCCCCOC(=O)/C=C/C(=O)OCCCCCC [DHF, Dihexylfumarate, reference compound]
*A* 10

*Q* Request: CCCCCCC/C=C(/C(C)=O)C(=O)OCC [drawing 56]
*A* 35

*Q* Request: CCCCCCCC=C(C(=O)OCC)C(=O)OCC [drawing 55]
*A* 22

*Q* Request: CCOC(=O)/C=C(\C(=O)OCC)C(=O)c1ccccc1 [drawing 60]
*A* 85

###

// values below are reported % Headspace Reduction
- Experimental Details: Neutralization of propyl mercaptane (headspace GC-MS)
- Protocol Conditions: 0.25 ml 4 mM test compound + 0.25 ml 4 mM propyl mercaptane in dimethylsulfoxide/H2O 1:1, room temperature, 3 h, vs blank samples
Express the result in % but write the number alone.

Reference set, count: 5
CCOC(=O)C(OCC)C(C(C)=O)C(=O)c1ccccc1 (stereo not drawn)
22
CCOC(=O)C(C)=C(C(=O)OCC)C(=O)OCC
20
CCCC(=O)/C(=C/C(=O)OCC)C(=O)OCC
100
CCOC(=O)C(OCC)C(C(C)=O)C(C)=O (stereo not drawn)
82
CCOC(=O)C(O)C(C(=O)OC)C(=O)C(C)(C)C (stereo not drawn)
15

*Q* Requested read-out: % Headspace Reduction. Entry: CC(=O)C(=CC(C)CCC=C(C)C)C(C)=O (stereo not drawn)
*A* 8

*Q* Request: CCOC(=O)C(O)C(C(C)=O)C(=O)OC(C)(C)C (stereo not drawn)
*A* 45

*Q* Request: CCOC(=O)/C=C(/C(C)=O)C(=O)OCC [drawing 36]
*A* 100

*Q* Request: CCOC(=O)C(OCC)C(C(=O)OCC)C(=O)c1ccccc1 (stereo not drawn)
*A* 10

*Q* Request: CCOC(=O)C(O)C(C(=O)OCC)C(=O)c1ccccc1 (stereo not drawn)
*A* 20

*Q* Request: CCCC(=O)/C(C(=O)OCC)=C(\O)C(=O)OCC
*A* 15

*Q* Request: CCCC(=O)C(C(=O)OCC)C(OCC)C(=O)OCC (stereo not drawn)
*A* 38

###

- Experimental Details: Neutralization of propyl mercaptane (headspace GC-MS)
- Protocol Conditions: 0.25 ml 4 mM test compound + 0.25 ml 4 mM propyl mercaptane in dimethylsulfoxide/H2O 1:1, room temperature, 3 h, vs blank samples
Readout Label: % Headspace Reduction

Reference set, count: 3
CCOC(=O)/C=C(\C(C)=O)C(=O)c1ccccc1
100%
CCOC(=O)/C=C(\C(=O)OCC)C(=O)c1ccccc1 [drawing 50]
100%
CCOC(=O)C(OC)C(C(C)=O)C(=O)OCC (stereo not drawn)
54%

*Q* Requested read-out: % Headspace Reduction. Entry: CC(=O)C(=CC(C)C)C(C)=O
*A* 34%

*Q* Request: CCOC(=O)C(OCC)C(C(C)=O)C(=O)OCC (stereo not drawn) [drawing 42]
*A* 64%

*Q* Request: CCCCCCOC(=O)/C=C/C(=O)OCCCCCC [DHF, Dihexylfumarate, reference compound]
*A* 5%
